Provenance of the data: paper PMC4551922

Target: MBP-FUS (human, UniProt P35637 1-526)
Sequence (P35637 whole entry): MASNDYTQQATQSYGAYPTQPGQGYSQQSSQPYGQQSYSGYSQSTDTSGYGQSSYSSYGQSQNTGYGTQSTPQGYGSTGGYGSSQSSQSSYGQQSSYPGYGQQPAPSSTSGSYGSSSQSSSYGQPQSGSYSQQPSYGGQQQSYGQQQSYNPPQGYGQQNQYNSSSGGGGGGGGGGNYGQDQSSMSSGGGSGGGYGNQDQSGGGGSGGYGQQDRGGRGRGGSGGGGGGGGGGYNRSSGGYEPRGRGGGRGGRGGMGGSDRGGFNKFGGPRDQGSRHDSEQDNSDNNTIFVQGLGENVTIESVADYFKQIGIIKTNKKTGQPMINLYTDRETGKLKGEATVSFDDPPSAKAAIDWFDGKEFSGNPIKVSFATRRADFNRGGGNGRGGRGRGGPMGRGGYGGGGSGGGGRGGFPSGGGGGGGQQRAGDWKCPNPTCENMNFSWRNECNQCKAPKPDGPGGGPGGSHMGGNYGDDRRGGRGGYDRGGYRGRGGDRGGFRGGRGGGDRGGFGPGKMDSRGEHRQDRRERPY
Experiment: EMSA; EMSA: 50 mM Tris-HCl pH 7.4, 150 mM KCl, 2 mM MgCl2, 2 mM DTT, 0.1 mg/ml yeast tRNA, 0.1 mg/ml BSA, room temperature, 30 min, trace 32P-RNA
Conditions: protein: recombinant; tags: N-terminal His6-MBP (not cleaved); label: 32P
pKd: −log10 of the molar value.
measure: pKd

CAACUUAGGUGGUUGAUUUGA (ssRNA) [GUGGU] ... 6.01
AAAAAAAAAAAAAAAAAAAAAAAA (ssRNA) [polyA 24-mer] ... 6.07
GAUUUAUCUUUAACUACUCUAUCUUCUGAACAUGACA (ssRNA) [Stem-loop neg] ... 6.34
AGGGTTAGTGTTAGTGTTAGGG (ssDNA) [Htelo DNA neg] ... 6.16
AUUGAGGAGCAGCAGAGAAGUUGGAGUGAAGGCAGAGAGGGGUUAAGG (ssRNA) [prD RNA] ... 7.01
UUGUAUUUUGAGCUAGUUUCCUCAC (ssRNA) [GGUG neg] ... 6.08
AGGGTTAGGGTTAGGGTTAGGG (structured_DNA) [Htelo DNA] ... 6.14
AGGUCUCAGUUCAUCGCGCGAGGUUAUAGU (ssRNA) [CGCGC] ... 6.54
CCUUAACCCCUCUCUGCCUUCACUCCAACUUCUCUGCUGCUCCUCAAU (ssRNA) [As-prD RNA] ... 7.10
